For each record, write down the corresponding log10(EC50).
Measured Target: Melanocortin receptor 4 (Homo sapiens, UniProt P32245)
Sequence (P32245 whole entry): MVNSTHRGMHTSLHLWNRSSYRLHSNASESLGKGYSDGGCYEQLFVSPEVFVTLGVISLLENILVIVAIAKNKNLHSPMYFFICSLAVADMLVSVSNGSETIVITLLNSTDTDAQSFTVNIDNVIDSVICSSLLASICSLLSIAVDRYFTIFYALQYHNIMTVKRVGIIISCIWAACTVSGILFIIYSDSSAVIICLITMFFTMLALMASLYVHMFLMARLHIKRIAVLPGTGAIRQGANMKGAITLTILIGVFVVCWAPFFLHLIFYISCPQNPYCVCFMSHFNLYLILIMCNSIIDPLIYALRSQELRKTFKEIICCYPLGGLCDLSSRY
Assay Overview: Agonist activity at human MC4R expressed in CHO cells after 4 hrs by luciferase reporter gene assay
Type: functional, cell-based
Run Parameters: read-out: pEC50 (converted)
Answers are given as log10 of EC50 in µM.

Record summary for CC(C)N(C(=O)CN1C=CN(c2ccccc2)C(=O)C(Cc2n[nH]c3ccccc23)C1=O)c1ccccc1 (racemic) : reported log10(EC50) = 0.51

Record summary for COc1ccc(N(C(=O)CN2C=CN(c3ccccc3)C(=O)C(Cc3n[nH]c4ccccc34)(OC)C2=O)C(C)C)cc1 (racemic) : reported log10(EC50) = -0.78

Record summary for "O=C1[C@H](Cc2n[nH]c3ccccc23)C(=O)N(c2ccccc2)C=CN1CC(=O)N1CCCCc2ccccc21" : reported log10(EC50) = -0.10

Record summary for COc1ccc(N(C(=O)CN2C=CN(c3cccnc3)C(=O)C(Cc3n[nH]c4cc(F)ccc34)C2=O)C(C)C)cc1 (racemic) : reported log10(EC50) = -0.18

Record summary for "CC(C)N(C(=O)CN1C=CN(c2ccccc2)C(=O)[C@H](Cc2n[nH]c3cc(F)ccc23)C1=O)c1ccccc1" : reported log10(EC50) = 0.10

Record summary for COC1(Cc2n[nH]c3ccccc23)C(=O)N(CC(=O)N(c2ccc(F)cc2)C(C)C)C=CN(c2ccccc2)C1=O (racemic) : reported log10(EC50) = -1.35

Record summary for CC(C)N(C(=O)CN1C=CN(c2ccccc2)C(=O)C(Cc2n[nH]c3ccccc23)C1=O)c1ccc(OC(F)(F)F)cc1 (racemic) : reported log10(EC50) = -0.82

* * *

For each record, write down the corresponding Efficacy.
Measured Target: Melanocyte-stimulating hormone receptor (Homo sapiens, UniProt Q01726)
Sequence (Q01726 whole entry, looked up): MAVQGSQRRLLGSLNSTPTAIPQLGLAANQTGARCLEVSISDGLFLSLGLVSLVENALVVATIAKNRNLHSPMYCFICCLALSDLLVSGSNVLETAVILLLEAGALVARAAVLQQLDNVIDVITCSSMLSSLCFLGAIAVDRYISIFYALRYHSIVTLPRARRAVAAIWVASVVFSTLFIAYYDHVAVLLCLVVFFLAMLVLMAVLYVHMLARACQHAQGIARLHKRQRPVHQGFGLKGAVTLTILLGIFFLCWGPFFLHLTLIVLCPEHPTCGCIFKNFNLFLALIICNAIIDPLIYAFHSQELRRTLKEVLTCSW
Assay Overview: Agonist activity at human MC1R expressed in CHO cells at 10 uM after 4 hrs by luciferase reporter gene assay relative to alpha-melanocyte stimulating hormone
Type: functional, cell-based
Note: unit % is implicit; provide only the numeric part.

Record summary for COc1ccc(N(C(=O)CN2C=CN(c3ccccc3)C(=O)C(Cc3nn(C)c4ccccc34)C2=O)C(C)C)cc1 (racemic) : reported Efficacy = 6

Record summary for O=C(CN1C=CN(c2ccccc2)C(=O)C(Cc2n[nH]c3ccccc23)C1=O)CP(=O)(O)Oc1ccccc1 (racemic) : reported Efficacy = 3

Record summary for O=C(CN1C=CN(c2ccccc2)C(=O)C(Cc2n[nH]c3ccccc23)C1=O)CP(=O)(Oc1ccccc1)Oc1ccccc1 (racemic) : reported Efficacy = 1

Record summary for CCn1nc(CC2C(=O)N(CC(=O)N(c3ccc(OC)cc3)C(C)C)C=CN(c3ccccc3)C2=O)c2ccccc21 (racemic) : reported Efficacy = 2

Record summary for COc1ccc(N(C(=O)CN2C=CN(C3CCCCC3)C(=O)C(Cc3n[nH]c4ccccc34)C2=O)C(C)C)cc1 (racemic) : reported Efficacy = 25

Record summary for "CC(C)N(C(=O)CN1C=CN(c2ccccc2)C(=O)[C@@H](Cc2n[nH]c3cc(F)ccc23)C1=O)c1ccccc1" : reported Efficacy = 2

Record summary for COc1ccc(N(C(=O)CN2C=CN(C3CCCCC3)C(=O)C(Cc3ccccc3)C2=O)C(C)C)cc1 (racemic) : reported Efficacy = 0

Record summary for "CC(C)N(C(=O)CN1C=CN(c2ccccc2)C(=O)[C@@H](Cc2n[nH]c3ccccc23)C1=O)c1ccccc1" : reported Efficacy = 9
